Let's look at some molecules and their measured MIC.
# Tested on: Staphylococcus aureus ATCC 29213 = CCM 4223
# Assay Notes: MIC, microdilution method
# Format: cell-based
# Recorded Conditions: Staphylococcus aureus
Write down the numeric answer in µg/mL and omit the unit.

In the examples that follow, each entry is paired with its recorded MIC.
>  <Molecule>
CC(C)COP(=O)(CCN(CCCN)CCCN)OCCCCCCCCCCOP(=O)(CCN(CCCN)CCCN)OCC(C)C (stereo not shown)

>  <Test System>
Staphylococcus aureus ATCC 29213 = CCM 4223

>  <MIC, µg/mL>
16

$$$$
>  <Molecule>
CCCCOP(=O)(CCN(CCCN)CCCN)OCCCCCCCCCCOP(=O)(CCN(CCCN)CCCN)OCCCC.Cl.Cl.Cl.Cl.Cl.Cl (stereo not shown)

>  <Test System>
Staphylococcus aureus ATCC 29213 = CCM 4223

>  <MIC, µg/mL>
2

$$$$
>  <Molecule>
CCCCCOP(=O)(CCN(CCCN)CCCN)OCCCCCCCCCCCCCCOP(=O)(CCN(CCCN)CCCN)OCCCCC.Cl.Cl.Cl.Cl.Cl.Cl (stereo not shown)

>  <Test System>
Staphylococcus aureus ATCC 29213 = CCM 4223

>  <MIC, µg/mL>
0.5

$$$$
>  <Molecule>
CCCCCCOP(=O)(CCN(CCCN)CCCN)OCCCCCCCCCCOP(=O)(CCN(CCCN)CCCN)OCCCCCC.Cl.Cl.Cl.Cl (stereo not shown)

>  <Test System>
Staphylococcus aureus ATCC 29213 = CCM 4223

>  <MIC, µg/mL>
0.5

$$$$
>  <Molecule>
CCCCOP(=O)(CCN(CCCN)CCCN)OCCCCCCCCCCCCCCOP(=O)(CCN(CCCN)CCCN)OCCCC.Cl.Cl.Cl.Cl.Cl.Cl (stereo not shown)

>  <Test System>
Staphylococcus aureus ATCC 29213 = CCM 4223

>  <MIC, µg/mL>
1

$$$$
>  <Molecule>
CCCCCOP(=O)(CCN(CCCN)CCCN)OCCCCCCCCCCOP(=O)(CCN(CCCN)CCCN)OCCCCC.Cl.Cl.Cl.Cl.Cl.Cl (stereo not shown)

>  <Test System>
Staphylococcus aureus ATCC 29213 = CCM 4223

>  <MIC, µg/mL>
0.5

$$$$
>  <Molecule>
CCCC/C=C\CCOP(=O)(CCN(CCCN)CCCN)OCCCCCOP(=O)(CCN(CCCN)CCCN)OCC/C=C\CCCC (stereo not shown)

>  <Test System>
Staphylococcus aureus ATCC 29213 = CCM 4223

>  <MIC, µg/mL>
0.5

$$$$
>  <Molecule>
CCCC/C=C\CCOP(=O)(CCN(CCCN)CCCN)OCCCCCCOP(=O)(CCN(CCCN)CCCN)OCC/C=C\CCCC (stereo not shown)

>  <Test System>
Staphylococcus aureus ATCC 29213 = CCM 4223

>  <MIC, µg/mL>
1

$$$$

So what's the measured MIC for this one? CC(C)COP(=O)(CCN(CCCN)CCCN)OCCCCCCCCCCCCOP(=O)(CCN(CCCN)CCCN)OCC(C)C (stereo not shown) 4

So what's the measured MIC for this one? CCCCOP(=O)(CCN(CCN)CCN)OCCCCCCCCCCOP(=O)(CCN(CCN)CCN)OCCCC.Cl.Cl.Cl.Cl.Cl.Cl (stereo not shown) 2

So what's the measured MIC for this one? NCCCN(CCCN)CCP(=O)(OCCCCCCCCCCCCOP(=O)(CCN(CCCN)CCCN)OCCc1ccccc1)OCCc1ccccc1 (stereo not shown) 2

Origin of values: patent US12540148B2
